Test system: FXR:RXRa (NR concentration 270 nM, RXRa partner concentration 90 nM)
Test: PBM binding z-score (relative to random genomic background probes); higher = stronger binding; sequences stand for … in GC…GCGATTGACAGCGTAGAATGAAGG
measure: PBM binding z-score

* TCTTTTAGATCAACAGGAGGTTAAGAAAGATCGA | 1.27
* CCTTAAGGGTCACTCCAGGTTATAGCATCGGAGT | 6.75
* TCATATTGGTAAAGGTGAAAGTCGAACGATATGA | 0.751
* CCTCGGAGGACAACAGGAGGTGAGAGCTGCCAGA | -0.0702
* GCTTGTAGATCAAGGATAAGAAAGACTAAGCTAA | -0.495
* AGAATGAGGTTATTAAGATCAGGGACTTGCGGTC | 1.59
* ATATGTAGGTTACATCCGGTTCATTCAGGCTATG | 1
* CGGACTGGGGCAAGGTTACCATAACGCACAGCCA | 0.491
* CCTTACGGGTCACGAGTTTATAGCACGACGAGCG | 6.13
* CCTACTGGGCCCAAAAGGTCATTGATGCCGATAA | 4.23
* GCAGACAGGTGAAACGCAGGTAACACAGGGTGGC | -0.0327
* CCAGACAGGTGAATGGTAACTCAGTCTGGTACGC | -0.448
* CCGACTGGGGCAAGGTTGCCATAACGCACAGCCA | -0.306
* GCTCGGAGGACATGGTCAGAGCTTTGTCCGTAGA | -0.823
* CGTCCAAGTTCAATGCTAGGTCAGTGAAAGCATT | 3.05
* GTACCAAGGTGCATAGGTCGTTGATGAGTAGGCG | 0.192
* GCTCGGAGGACAACGTCAGAGCTTTGTCCGTAGA | -0.816
* CGTCAAAGTTCAACTAAGGTAACGTTAAGCACGC | 7.22
* TCTGCTAGGTCAGTTGGTCAGCTAGCGAGCTGCC | 0.851
* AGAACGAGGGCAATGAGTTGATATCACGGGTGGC | 0.383
* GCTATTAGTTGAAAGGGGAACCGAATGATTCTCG | 0.138
* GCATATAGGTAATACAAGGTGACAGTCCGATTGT | 0.924
* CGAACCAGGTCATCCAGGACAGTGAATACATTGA | 5.37
* CTCTAAAGGTCGTGCTCAGGTGAGTATACCAAAC | 5.37
* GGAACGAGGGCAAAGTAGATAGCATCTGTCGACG | 0.832
* ACTATTAGTTGACTTAGGGCAACCGTTACGACGC | 0.212
* CAAACTAGGTCATAGAGGTCAAAGTCCGTGCGTA | 7.25
* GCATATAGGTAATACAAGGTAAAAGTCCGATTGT | 1.02
* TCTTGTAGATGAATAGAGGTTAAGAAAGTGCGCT | 1.46
* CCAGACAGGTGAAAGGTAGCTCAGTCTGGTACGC | 0.0731
* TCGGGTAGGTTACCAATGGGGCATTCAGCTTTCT | 0.661
* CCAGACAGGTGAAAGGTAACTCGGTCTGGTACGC | 0.495
* GGAACGAGGGCAAAGTGGATAGCATCTGTCGACG | 0.8
* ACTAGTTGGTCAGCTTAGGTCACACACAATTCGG | 1.75
* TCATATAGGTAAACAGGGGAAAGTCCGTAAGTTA | 1.29
* GCTAGCAGGCCATTTGGGTCACTCGATGACGGGC | -0.0398
* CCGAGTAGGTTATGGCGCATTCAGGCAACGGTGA | -0.0642
* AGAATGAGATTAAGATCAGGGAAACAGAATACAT | -0.282
* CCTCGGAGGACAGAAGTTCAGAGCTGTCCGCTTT | -0.0968
* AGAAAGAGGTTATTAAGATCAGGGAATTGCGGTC | 2.15
* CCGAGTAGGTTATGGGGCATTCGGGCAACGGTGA | 0.24
* CGTCAAAGTTCAAGGTAACGTGACAGAAAGCAGC | 5.87
* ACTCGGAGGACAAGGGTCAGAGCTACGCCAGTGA | 2
